This section presents compounds with their documented melting point values.

For orientation, consider the following solved cases.
> print(dat)
                                   compound         metric      datavalue
1  Cc1cccc(-c2[nH]c(C(C)C)nc2-c2cccc(-c3cccc(F)c3)c2)n1  melting point  140 to 142 °C
2  Cc1cccc(-c2[nH]c(C(C)C)nc2-c2cccc(-c3ccc4c(c3)C=CS4(=O)=O)c2)n1  melting point  137 to 138 °C
3  Cc1cccc(-c2nn(C)cc2-c2ccc(F)c(-c3ccc(S(C)(=O)=O)cc3)c2)n1  melting point    66 to 67 °C

// query Return reported melting point; argument: `CC(=O)c1ccc(-c2cccc(-c3nc(C(C)C)[nH]c3-c3cccc(C)n3)c2)cc1`
// result 84 to 87 °C

// query Return reported melting point; argument: `Cc1cccc(-c2[nH]c(C(C)C)nc2-c2cccc(-c3cccnc3)c2)n1`
// result 74 to 77 °C

// query Return reported melting point; argument: `Cc1cccc(-c2[nH]c(C(C)C)nc2-c2cccc(-c3ccc(N)cn3)c2)n1`
// result 119 to 124 °C

// query Return reported melting point; argument: `Cc1cccc(-c2nc(C(C)C)[nH]c2-c2cccc(-c3cnn(C)c3)c2)n1`
// result 84 to 86 °C

// query Return reported melting point; argument: Cc1cccc(-c2n[nH]cc2-c2ccc(F)c(-c3ccc(C(C)O)cn3)c2)n1 (stereo not shown)
// result 149 to 151 °C

// query Return reported melting point; argument: Cc1cccc(-c2n[nH]cc2-c2ccc(F)c(-c3cn4c(n3)[S+]([O-])CC4)c2)n1 (stereo not shown)
// result 140 to 144 °C

// query Return reported melting point; argument: `Cc1cccc(-c2[nH]c(C(C)C)nc2-c2ccc(F)c(-c3ccc[nH]3)c2)n1`
// result 103 to 106 °C

----------
This section presents compounds with their documented melting point values.

> print(dat)
                                smilesinput         metric      datavalue
1  Cc1cccc(-c2[nH]c(C(C)C)nc2-c2cccc(-c3ccc(OC(F)(F)F)cc3)c2)n1  melting point  120 to 122 °C

// query Return reported melting point; argument: `Cc1cccc(-c2[nH]c(C(C)C)nc2-c2ccc(F)c(-c3ccc(C(=O)NC4CCOCC4)cc3)c2)n1`
// result 130 to 132 °C

// query Return reported melting point; argument: `Cc1cccc(-c2n[nH]cc2-c2ccc(F)c(-c3csc(C(C)(C)O)n3)c2)n1`
// result 78 to 80 °C

----------
This section presents compounds with their documented melting point values.

> print(dat)
                                smilesinput      datavalue
1  Cc1cccc(-c2n[nH]cc2-c2ccc(F)c(-c3ncc(C(C)(C)O)cn3)c2)n1         162 °C
2  CCn1cc(-c2cc(-c3[nH]c(C(C)C)nc3-c3cccc(C)n3)ccc2F)cn1    76 to 78 °C
3  Cn1cc(-c2cc(-c3c[nH]nc3-c3ccccn3)ccc2F)cn1  134 to 136 °C
4  Cc1cccc(-c2[nH]c(C3CC3)nc2-c2cccc(-c3ccc(C(=O)NC4CCOCC4)cc3)c2)n1  127 to 128 °C
5  Cc1cccc(-c2[nH]c(C(C)C)nc2-c2ccc(F)c(-c3cn(C)cn3)c2)n1  100 to 103 °C
6  Cc1cccc(-c2[nH]c(C(C)C)nc2-c2cccc(-c3ccc(S(N)(=O)=O)cc3F)c2)n1  246 to 248 °C

// query Return reported melting point; argument: `Cc1cccc(-c2[nH]c(C(C)C)nc2-c2cccc(-c3ccc(C(=O)NN4CCOCC4)cc3)c2)n1`
// result 145 °C
